Values of pIC50 reported for human MER (528-end) (Homo sapiens (Human), UniProt Q12866) appear below.
pIC50: −log10 of the molar value.

Query: # input compound: CCc1cccc(NC(=O)N2CC[C@@H](NC(=O)c3cc(-c4cnn(C)c4)cnc3N)C2)c1 [Example 19] ; wanted: its pIC50
Result: < 6.00

Query: Please give the result for Cn1cc(-c2cnc(N)c(C(=O)N[C@@H]3CCN(C(=O)Oc4ccccc4C#N)C3)c2)cn1 [Example 62] too.
Result: < 6.00

Query: Please give the result for CN(C)CCNCc1ccc(-c2cccc(OC(=O)N3CC[C@@H](NC(=O)c4cc(-c5cnn(C)c5)cnc4N)C3)c2)cc1 [Example 308] too.
Result: 6.00 to 7.00

Query: Please give the result for Cn1cc(-c2cnc(N)c(C(=O)N[C@@H]3CCN(C(=O)c4ccc(-c5ccc(F)nc5)cc4)C3)c2)cn1 [Example 357] too.
Result: < 6.00

Query: Please give the result for Cn1cc(-c2cnc(N)c(C(=O)N[C@@H]3CCN(C(=O)c4cc5c(C(F)(F)F)ccc(Cl)c5n4C)C3)c2)cn1 [Example 703] too.
Result: < 6.00

Query: Please give the result for Cn1cc(-c2cnc(N)c(C(=O)N[C@@H]3CCN(C(=O)c4cccc(-c5cccc(CN6CCOCC6)c5)c4)C3)c2)cn1 [Example 461] too.
Result: < 6.00

Query: Please give the result for Nc1ncc(-c2cnn(C3CCNCC3)c2)cc1C(=O)N[C@@H]1CCN(C(=O)c2ccc(-c3ccccc3)cc2)C1 [Example 562] too.
Result: 7.00 to 8.00

Query: Please give the result for Cn1cc(-c2cnc(N)c(C(=O)N[C@@H]3CCN(C(=O)Nc4ccccc4Oc4ccccc4)C3)c2)cn1 [Example 18] too.
Result: < 6.00

Query: Please give the result for Cc1csc(-c2ccc(C(=O)N3CC[C@@H](NC(=O)c4cc(-c5cnn(C)c5)cnc4N)C3)cc2)n1 [Example 544] too.
Result: 6.00 to 7.00

Query: Please give the result for Cn1cc(-c2cnc(N)c(C(=O)N[C@@H]3CCN(C(=O)c4ccc(-c5cc(Cl)c(F)c(Cl)c5)cc4)C3)c2)cn1 [Example 664] too.
Result: 6.00 to 7.00

Query: Please give the result for Nc1ncc(-c2ccc(N3CCOCC3)nc2)cc1C(=O)N[C@@H]1CCN(C(=O)c2ccc(-c3ccccc3)cc2)C1 [Example 559] too.
Result: 7.00 to 8.00

Query: Please give the result for Cn1cc(-c2cnc(N)c(C(=O)N[C@@H]3CCN(Cc4cccc(Br)c4)C3)c2)cn1 [Example 231] too.
Result: < 6.00

Query: Please give the result for Cn1cc(-c2cnc(N)c(C(=O)N[C@@H]3CCN(C(=S)Nc4cccc(Br)c4)C3)c2)cn1 [Example 52] too.
Result: < 6.00

Query: Please give the result for Cn1cc(-c2ccc(C(=O)N3CC[C@@H](NC(=O)c4cc(-c5cnn(C)c5)cnc4N)C3)cc2)cn1 [Example 506] too.
Result: 6.00 to 7.00

The measurements presented in this section are drawn from patent US12378224B2.
